Source of measurements: patent US12371454B2

Molecular target: Kras and SOS1 (biotin-tagged human Kras loaded with GDP, His-tagged human SOS1) (Homo sapiens, UniProt P01116, G12D)
Construct: made in house; host or cells: E. coli (stated for Kras only)
Sequence (P01116 1-188 isoform P01116-2 G12D): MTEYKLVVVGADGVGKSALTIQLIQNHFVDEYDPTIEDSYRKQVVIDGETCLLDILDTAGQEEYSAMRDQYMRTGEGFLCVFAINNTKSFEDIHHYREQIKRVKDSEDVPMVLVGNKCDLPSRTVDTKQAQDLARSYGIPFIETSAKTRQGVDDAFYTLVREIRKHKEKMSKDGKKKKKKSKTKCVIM
Test: Protein-protein interaction inhibition between Kras and SOS1 (KrasGl2D-SOS PPI) using AlphaScreen
Format: binding
Conditions: AlphaScreen; biotin-tagged human Kras loaded with GDP, His-tagged human SOS1; read-out: KRAS G12D-SOS PPI IC50
Experimental: Protein-Protein Interaction Inhibition Between Kras and SOS1 (KrasGl2D-SOS PPI) Using AlphaScreen Protein-protein interaction inhibition (PPI) between Kras and SOS1 was measured by energy transfer from nickel-conjugated donor beads to streptavidin-conjugated acceptor beads using biotin-tagged human Kras expressed in E. coli and loaded with GDP after purification and His-tagged human SOS1 enzyme. […]
pIC50: −log10 of the molar value. Positions of bridges follow the written chain, without caps; N, C: chain ends. Non-standard residues stand in square brackets, D forms with d. Residues, ends and D or L forms follow the SMILES beside them. *: point of attachment. hPhe(3-Cl-4-CF3) = N[C@@H](CCc1ccc(C(F)(F)F)c(Cl)c1)C(=O)O; hPhe(3-OMe-4-CF3) = COc1cc(CC[C@H](N)C(=O)O)ccc1C(F)(F)F; NMePhe(4-Me) = CN[C@@H](Cc1ccc(C)cc1)C(=O)O; NMeNva(5,5-F2) = CN[C@@H](CCC(F)F)C(=O)O; NMeGly(cPent) = CN[C@H](C(=O)O)C1CCCC1; Phe(3-I) = N[C@@H](Cc1cccc(I)c1)C(=O)O; NMeCha = CN[C@@H](CC1CCCCC1)C(=O)O; hPhe = N[C@@H](CCc1ccccc1)C(=O)O; NMeD = CN[C@@H](CC(=O)O)C(=O)O; NMeL = CN[C@@H](CC(C)C)C(=O)O; NMeA = CN[C@@H](C)C(=O)O; NMeAib = CNC(C)(C)C(=O)O; Piperidide = C1CCN(*)CC1; Ac5c = NC1(C(=O)O)CCCC1; Aze = O=C(O)[C@@H]1CCN1; Sar = CNCC(=O)O
Please use met whenever pIC50 is not below 8, and not met whenever it is.

Task: Kindly determine if pIC50 recorded for CC[C@H](C)[C@@H]1NC(=O)[C@H](CC(C)C)N(C)C(=O)C[C@@H](C(=O)N2CCCCC2)N(C)C(=O)[C@H](C2CCCC2)N(C)C(=O)C2(CCCC2)NC(=O)[C@@H]2CCCN2C(=O)[C@H](CCc2ccc(C(F)(F)F)c(OC)c2)NC(=O)CN(C)C(=O)[C@H](CC2CCCCC2)N(C)C(=O)[C@@H]2CCN2C(=O)[C@H](C)N(C)C1=O [Compound 2080] ([NMeL]I[NMeA][Aze][NMeCha][Sar][hPhe(3-OMe-4-CF3)]P[Ac5c][NMeGly(cPent)][NMeD]-Piperidide; lactam N-11) is above or exactly 8.
Result: met

Task: Does CC[C@H](C)[C@@H]1NC(=O)[C@H](CC(C)C)N(C)C(=O)C[C@@H](C(=O)N(C)C)N(C)C(=O)[C@H](C2CCCC2)N(C)C(=O)C2(CCCC2)NC(=O)[C@H](CCC(F)F)N(C)C(=O)[C@H](CCc2ccc(C(F)(F)F)c(Cl)c2)NC(=O)CN(C)C(=O)[C@H](CC2CCCCC2)N(C)C(=O)[C@@H]2CCN2C(=O)[C@H](C)N(C)C1=O [Compound 1907] ([NMeL]I[NMeA][Aze][NMeCha][Sar][hPhe(3-Cl-4-CF3)][NMeNva(5,5-F2)][Ac5c][NMeGly(cPent)][NMeD]-NMe2; lactam N-11) have a reported pIC50 of at least 8?
Result: met

Task: Entry CC[C@H](C)[C@@H]1NC(=O)[C@H](CC(C)C)N(C)C(=O)C[C@@H](C(=O)N2CCCCC2)N(C)C(=O)[C@H](CC(C)C)NC(=O)C(C)(C)N(C)C(=O)[C@H](CCc2ccccc2)NC(=O)[C@H](Cc2cccc(I)c2)NC(=O)CN(C)C(=O)[C@H](Cc2ccc(C)cc2)N(C)C(=O)CN(C)C(=O)CN(C)C1=O [Compound 13] ([NMeL]I[Sar][Sar][NMePhe(4-Me)][Sar][Phe(3-I)][hPhe][NMeAib]L[NMeD]-Piperidide; lactam N-11) : is its pIC50 no less than 8?
Result: not met
